In this section we review reported pKd values for a set of binders.
Target: T1, monomeric His-tagged hFcRn (human, UniProt P55899 24-297; P61769 21-119, limits assumed)
T1 construct: also called human FcRn; not shown: His tag
T1 sequence (P55899 24-297 limits assumed, chain 1 of 2): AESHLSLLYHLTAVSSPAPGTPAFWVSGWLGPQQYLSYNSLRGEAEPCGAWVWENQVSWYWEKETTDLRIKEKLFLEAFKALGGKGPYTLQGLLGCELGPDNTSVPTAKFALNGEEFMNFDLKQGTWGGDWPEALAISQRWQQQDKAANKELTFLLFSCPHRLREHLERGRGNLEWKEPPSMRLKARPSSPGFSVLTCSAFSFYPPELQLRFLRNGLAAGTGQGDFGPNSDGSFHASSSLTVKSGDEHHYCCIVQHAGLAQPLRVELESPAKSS
T1 sequence (P61769 21-119 limits assumed, chain 2 of 2): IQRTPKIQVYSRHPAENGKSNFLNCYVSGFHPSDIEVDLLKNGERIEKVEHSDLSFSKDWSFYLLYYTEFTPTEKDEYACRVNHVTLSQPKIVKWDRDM
Assay: SPR Biacore 3000, antibody amine-coupled to CM5, His-tagged hFcRn analyte, pH 7.4, 25 C, 1:1 Langmuir
pKd (log units): -log10 of the concentration in mol/L.

Reference set (3 entries):
binder	quantityName	number
G50_C10/Vκ3 (antibody, V domains shown, Bivalent IgG4 with S241P, human kappa; also called SYNT002-16; G50_C10/Vκ3 (HEK)) VH: EVQLVESGGGLVKPGGSLKLSCAASGFTFSDYGMHWVRQAPGKGLEWVAYISSGSSTIYYADTVKGRFTISRDNAKNTLYLQMNSLRAEDTAMYYCARLESTTAVGDYWGQGTSVTVSS VL: DIVMTQSPDSLSASVGDRVTITCKASQSVSNDVAWYQQKPGQPPKLLIYYASNRYTGVPDRFSGSGYGTDFTLTISSLQAEDVAVYFCQQDYSSLTFGQGTKLEIK	pKd	12.18
G54_D11/Vκ3 (antibody, V domains shown, Bivalent IgG4 with S241P, human kappa; also called SYNT002-17; G54_D11 VH1) VH: EVQLVESGGGLVKPGGSLKLSCAASGFTFSDYGMHWVRQAPGKGLEWVAYISSGSSTIYYADTVKGRFTISRDNAKNTLYLQMNSLRAEDTAMYYCARFDTPATVGDYWGQGTSVTVSS VL: DIVMTQSPDSLSASVGDRVTITCKASQSVSNDVAWYQQKPGQPPKLLIYYASNRYTGVPDRFSGSGYGTDFTLTISSLQAEDVAVYFCQQDYSSLTFGQGTKLEIK	pKd	7.47
G15_C3/Vκ3 (antibody, V domains shown, Bivalent IgG4 with S241P, human kappa; also called SYNT002-3; G15_C3 VH1) VH: EVQLVESGGGLVKPGGSLKLSCAASGFTFSDYGMHWVRQAPGKGLEWVAYISSGSSTIYYADTVKGRFTISRDNAKNTLYLQMNSLRAEDTAMYYCARGESTTTVGDYWGQGTSVTVSS VL: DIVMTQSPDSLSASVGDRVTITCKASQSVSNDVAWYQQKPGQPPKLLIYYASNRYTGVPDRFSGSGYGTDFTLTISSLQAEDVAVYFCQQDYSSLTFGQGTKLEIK	pKd	8.11

// below: pKd requested for another binder
Entry under review: G47_B10/Vκ3 (antibody, V domains shown, Bivalent IgG4 with S241P, human kappa; also called SYNT002-8; G47_B10VH1_Vκ3) VH: EVQLVESGGGLVKPGGSLKLSCAASGFTFSDYGMHWVRQAPGKGLEWVAYISSGSSTIYYADTVKGRFTISRDNAKNTLYLQMNSLRAEDTAMYYCARAESTTTVGDYWGQGTSVTVSS VL: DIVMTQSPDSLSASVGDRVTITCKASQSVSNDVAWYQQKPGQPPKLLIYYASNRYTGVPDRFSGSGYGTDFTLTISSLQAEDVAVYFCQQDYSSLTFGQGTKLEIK . Reported pKd?
8.40
